test system: IGROV1 ovarian; assay: NCI tumour cell line growth inhibition, 48 h
Measured Metric: TGI

COc1ccc2c(c1)[C@@H](NC(C)=O)CCc1cc(OC)c(OC)c(OC)c1-2 :: > 100 µM
CC(C)=CCc1cc2c(cc1O)C1=C(C(=O)C3=C(NCCS3(=O)=O)C1=O)C(C=C(C)C)O2 (stereo not given) :: 15 µM
CN(C)CCNC(=O)c1cc2c3cc(Cl)ccc3[nH]c2c2ncccc12 :: 4.34 µM

## Input I'd like to know its TGI. The molecule in question is Fc1ccc(Nc2nc(Cl)c3[nH]cnc3n2)cc1Cl
## Output > 100 µM

## Input Also check Clc1ccc(Cc2nc3ccccc3o2)cc1
## Output > 100 µM

## Input Also check CC(C)(C)[Si](C)(C)OCC1OC(n2cnc3c(N)ncnc32)C2OC(=S)OC12 (stereo not given)
## Output > 100 µM

## Input Also check O=C(O)C(Cc1cc(I)c(O)c(I)c1)C1CCCCC1 (stereo not given)
## Output > 100 µM

## Input Also check O=C(O)c1ccc(N(/C=C/C(=O)C(F)(F)F)Cc2ccc(Cl)cc2)cc1
## Output 48.9 µM

## Input Also check COCN1C(=O)[C@@H]2CCCN2C(=O)c2cc(OC)c(Cc3ccccc3)cc21
## Output > 100 µM

## Input Also check Clc1ccc(OCC2NC3CCC2CC3)cn1 (stereo not given)
## Output > 100 µM

## Input Also check COC(=O)c1c(O)c(C#N)c2[nH]c3ccccc3n2c1=O
## Output > 100 µM

## Input Also check C=C(CO)C(=O)OC1CC(=C)C2CC(O)C(C)C2C2OC(=O)C(=C)C12 (stereo not given)
## Output 39.3 µM

## Input Also check Cc1ccc(S(=O)c2ccccc2[N+](=O)[O-])cc1 (stereo not given)
## Output > 100 µM

## Input Also check NS(=O)(=O)c1ccc(NC(=S)NC(=O)Nc2ccc(Cl)c(Cl)c2)cc1
## Output 39.2 µM

## Input Also check CCCc1nnc2sc(COc3ccc(OCc4nn5c(CCC)nnc5s4)c(Cl)c3)nn12
## Output > 100 µM

## Input Also check C/C(CN1C(=O)c2ccccc2C1=O)=N\NS(=O)(=O)c1ccc2ccccc2c1
## Output > 100 µM

## Input Also check C/C(=C\C(=O)O[C@H]1[C@@H]2[C@H](C)CC[C@H]2[C@]2(C)O[C@@]1(C1CCCCC1)C[C@H]2OC(=O)CO)c1ccccc1
## Output 14.7 µM

## Input Also check C=CCOC(=O)Cn1cnc2c(N)ncnc21
## Output > 100 µM

## Input Also check Cc1cc(I)cc(CNCCN(C)C)c1O
## Output > 100 µM

## Input Also check NC(N)=N/N=C/c1c(-c2ccccc2[N+](=O)[O-])nc2sccn12
## Output > 100 µM
